# System: HEK293T (UBE3A T485A transfected, BAR Wnt reporter)
# test_summary: Renilla luciferase signal (cell health) relative to plate median (fold (linear ratio)); higher = higher Renilla signal
# test_parameters: concentration: 0.01 uM; 24 h
In all, about 1,100 compounds were measured (“Renilla luciferase signal (cell health) relative to plate median”: median about 0.97, highest 2% from about 1.6 on). The full list was thinned out, with the highest values kept by preference.
Label rule, in plain words: Renilla luciferase signal of 1 and up is y, under 1 is n.

Prompt: Quick check: does CCCC(CCC)C(=O)O have Renilla luciferase signal greater than or equal to 1?
Completion: n

Prompt: Moving on to C=CCOC(Cn1ccnc1)c1ccc(Cl)cc1Cl (stereo not given)
Completion: n

Prompt: Moving on to COC(=O)CSc1cc(/N=c2\sc(=O)n3n2CCCC3)c(F)cc1Cl
Completion: y

Prompt: Moving on to CN(C)[C@@H]1C(O)=C(C(N)=O)C(=O)[C@@]2(O)C(O)=C3C(=O)c4c(O)cccc4[C@@](C)(O)[C@H]3[C@H](O)[C@@H]12.O.O [Oxytetracycline dihydrate]
Completion: n

Prompt: Moving on to C#CCOC(=O)[C@@H](C)Oc1ccc(Oc2ncc(Cl)cc2F)cc1
Completion: n

Prompt: Moving on to O=c1ccn(C2OC(COP(=O)(O)OP(=O)(O)OP(=O)(O)O)C(O)C2O)c(=O)[nH]1 (stereo not given)
Completion: n

Prompt: Moving on to CCOC(=O)C(C)Oc1ccc(Oc2cnc3cc(Cl)ccc3n2)cc1 (stereo not given)
Completion: y

---

# Test system: HEK293T (UBE3A T485A transfected, BAR Wnt reporter)
# test_summary: Renilla luciferase signal (cell health) relative to plate median (fold (linear ratio)); higher = higher Renilla signal
# test_parameters: concentration: 10 uM; 24 h
Whole data set: some 1,100 compounds, median “Renilla luciferase signal (cell health) relative to plate median” near 0.97, cut for the highest 2% near 1.6. The entries come from a sample that favours the highest values as a whole.
observed_property: Renilla luciferase signal
Quick one: just the number, no unit, thanks!

Prompt: Given CCCCOC(=O)c1ccccc1 [Butyl benzoate] , state its recorded Renilla luciferase signal.
Completion: 1.1

Prompt: Moving on to CCc1ccc(O)c(C(C)(C)C)c1
Completion: 1.02

Prompt: Moving on to CC(=O)O[C@]1(C(C)=O)CC[C@H]2[C@@H]3C=C(Cl)C4=CC(=O)[C@@H]5C[C@@H]5[C@]4(C)[C@H]3CC[C@@]21C [Cyproterone acetate]
Completion: 0.849

Prompt: Moving on to NC(=O)N/N=C/c1ccc([N+](=O)[O-])o1
Completion: 1.44

Prompt: Moving on to C=CCc1ccc(OC)c(OC)c1
Completion: 0.797

---

# Test system: HEK293T (UBE3A T485A transfected, BAR Wnt reporter)
# test_summary: Renilla luciferase signal (cell health) relative to plate median (fold (linear ratio)); higher = higher Renilla signal
# test_parameters: concentration: 100 uM; 24 h
Whole data set: some 1,100 compounds, median “Renilla luciferase signal (cell health) relative to plate median” near 0.97, cut for the highest 2% near 1.6. The sample as a whole holds a higher share of the highest values than the screen did.
Label rule, in plain words: Renilla luciferase signal of 1 and up is Satisfied, under 1 is Not satisfied.

Prompt: Quick check: does O=C1CCC(N2C(=O)c3ccccc3C2=O)C(=O)N1 (stereo unspecified) [Thalidomide] have Renilla luciferase signal greater than or equal to 1?
Completion: Not satisfied

Prompt: Moving on to Cl.Nc1ccn([C@@H]2O[C@H](CO)[C@@H](O)[C@@H]2O)c(=O)n1 [Cytarabine hydrochloride]
Completion: Not satisfied

Prompt: Moving on to CC[C@H]1OC(=O)[C@H](C)[C@@H](O[C@H]2C[C@@](C)(OC)[C@@H](O)[C@H](C)O2)[C@H](C)[C@@H](O[C@@H]2O[C@H](C)C[C@H](N(C)C)[C@H]2O)[C@](C)(O)C[C@@H](C)C(=O)[C@H](C)[C@@H](O)[C@]1(C)O
Completion: Satisfied

Prompt: Moving on to O.O=C1[N-]S(=O)(=O)c2ccccc21.[Na+] [Sodium saccharin hydrate]
Completion: Satisfied

Prompt: Moving on to CCSC(=O)N(CC(C)C)CC(C)C [Butylate]
Completion: Satisfied

Prompt: Moving on to O=C(O)CC(O)(CC(=O)O)C(=O)O
Completion: Satisfied

Prompt: Moving on to CC(C)CC(C=O)NC(=O)C(CC(C)C)NC(=O)C(CC(C)C)NC(=O)OCc1ccccc1 (stereo unspecified)
Completion: Not satisfied

Prompt: Moving on to CC(C)(C)CC(C)(C)c1ccc(O)c(-n2nc3ccccc3n2)c1
Completion: Satisfied

Prompt: Moving on to C=CCc1cc(S(=O)(=O)c2ccc(O)c(CC=C)c2)ccc1O [4,4'-Sulfonylbis[2-(prop-2-en-1-yl)phenol]]
Completion: Not satisfied

Prompt: Moving on to CC(C)CCCCCCOC(=O)C1CCCCC1C(=O)OCCCCCCC(C)C (stereo unspecified) [Diisononyl cyclohexane-1,2-dicarboxylate]
Completion: Satisfied

Prompt: Moving on to CCc1nc(N)nc(N)c1-c1ccc(Cl)cc1
Completion: Not satisfied

Prompt: Moving on to CCCCC(CC)CO (stereo unspecified)
Completion: Satisfied

Prompt: Moving on to O=C(CCCCCCCCc1cccnc1)N1CCC(C=C(c2ccccc2)c2ccccc2)CC1
Completion: Not satisfied

Prompt: Moving on to CNCc1ccc(NC(=O)c2c[nH]c3c2C(=O)CCC3)cc1
Completion: Not satisfied

Prompt: Moving on to Cc1occc(=O)c1O
Completion: Satisfied

Prompt: Moving on to Cc1cc(NC(=O)C(=O)O)cc(C)c1Oc1ccc(O)c2c1CCC2
Completion: Satisfied

---

# System: HEK293T (UBE3A T485A transfected, BAR Wnt reporter)
# test_summary: Renilla luciferase signal (cell health) relative to plate median (fold (linear ratio)); higher = higher Renilla signal
# test_parameters: concentration: 0.1 uM; 24 h
Over roughly 1,100 compounds, “Renilla luciferase signal (cell health) relative to plate median” has its median near 0.97; the highest 2% begin near 1.6. What follows is part of a selection rich in the highest values, with near analogues and random picks from the rest.
Label rule, in plain words: Renilla luciferase signal of 1 and up is Y, under 1 is N.

Prompt: Quick check: does O=C(O)CC(O)(CC(=O)O)C(=O)O have Renilla luciferase signal greater than or equal to 1?
Completion: N

Prompt: Moving on to CCCCCCCCCC(=O)O
Completion: N

Prompt: Moving on to CCCCCCCCCCCC(=O)OC [Methyl dodecanoate]
Completion: N

Prompt: Moving on to O=C(O)CC(O)C(=O)O (centres undefined)
Completion: Y

Prompt: Moving on to CC(C)(C)C(O)C(Cc1ccc(Cl)cc1)n1cncn1 (centres undefined)
Completion: Y

Prompt: Moving on to CC(C)(O)c1ccc(CNC(=O)c2cccnc2Oc2ccc3nonc3c2)cc1
Completion: N

Prompt: Moving on to CN(C)C(=O)Nc1ccc(Cl)c(Cl)c1
Completion: Y

Prompt: Moving on to Nc1cccc2c(N)cccc12
Completion: N

Prompt: Moving on to c1ccc2c(c1)ccc1ccccc12
Completion: N

Prompt: Moving on to COc1cc(C(C)C)c2c(c1)S(=O)(=O)N(COc1cc(=O)n3cccc(OCCN4CCCCC4)c3n1)C2=O
Completion: Y

Prompt: Moving on to COC(=O)c1ccccc1O [Methyl salicylate]
Completion: Y

Prompt: Moving on to CC(C)(C)CC(C)(C)c1ccc(O)c(-n2nc3ccccc3n2)c1
Completion: Y

Prompt: Moving on to CCCCCCCCC(=O)O
Completion: N

Prompt: Moving on to CC(=O)OC1CC(C)OC(C)O1 (centres undefined)
Completion: Y

Prompt: Moving on to c1ccc2cc3ccccc3cc2c1
Completion: Y

Prompt: Moving on to Nc1ccc2c(c1)C(=O)c1ccccc1C2=O
Completion: Y

Prompt: Moving on to Cc1occc(=O)c1O
Completion: N

---

# Test system: HEK293T (UBE3A T485A transfected, BAR Wnt reporter)
# test_summary: Renilla luciferase signal (cell health) relative to plate median (fold (linear ratio)); higher = higher Renilla signal
# test_parameters: concentration: 1 uM; 24 h
Whole data set: some 1,100 compounds, median “Renilla luciferase signal (cell health) relative to plate median” near 0.97, cut for the highest 2% near 1.6. What follows is part of a selection rich in the highest values, with near analogues and random picks from the rest.
observed_property: Renilla luciferase signal
Quick one: just the number, no unit, thanks!

Prompt: Given NC(=O)c1nc(-c2cccc(-c3cc(F)ccc3OCC(F)(F)C(F)(F)F)c2)n[n-]1.O.[K+] , state its recorded Renilla luciferase signal.
Completion: 0.78

Prompt: Moving on to CCCCCCCC/C=C\CCCCCCCC(=O)OC[C@@H](O)[C@H]1OC[C@H](O)[C@H]1O [Sorbitan, mono-(9Z)-9-octadecenoate]
Completion: 0.88

Prompt: Moving on to CC[C@H]1OC(=O)[C@H](C)[C@@H](O[C@H]2C[C@@](C)(OC)[C@@H](O)[C@H](C)O2)[C@H](C)[C@@H](O[C@@H]2O[C@H](C)C[C@H](N(C)C)[C@H]2O)[C@](C)(O)C[C@@H](C)C(=O)[C@H](C)[C@@H](O)[C@]1(C)O
Completion: 1.14
